- System: RXF 393
- TEST: NCI tumour cell line growth inhibition, 48 h
The source made the active and inactive calls. No stated cut-off is given here; in the data, active = GI50 up to about 1.1 µM and inactive = higher.
Answer with one of the outcomes Yes for active, No for inactive

// query What classification did O=C(Nc1ccc(C(F)(F)F)cc1[N+](=O)[O-])C(=O)Nn1c(S)nc2ccccc2c1=O end up with in this test?
// result No

// query What classification did Cn1cnc(N2CCCC2)c(C#N)c1=S end up with in this test?
// result No

// query What classification did COc1c(Cl)nc2ccccc2c1N=[N+]=[N-] end up with in this test?
// result No

// query What classification did C1CCC(CC2CCC(NC3=NCCO3)CC2)CC1 (stereo unspecified) end up with in this test?
// result No

// query What classification did CCN1CCC(O)(c2ccc([N+](=O)[O-])cc2)C(C(=O)c2ccc([N+](=O)[O-])cc2)C1 (stereo unspecified) end up with in this test?
// result No

// query What classification did C/C(=N\Nc1nc2cc(C)ccc2s1)c1ccccn1 end up with in this test?
// result No

// query What classification did Oc1ccc(CNCc2ccccc2)c2cccnc12 end up with in this test?
// result Yes

// query What classification did CC(O)c1c2c(cc3c1CC1(C3)Cc3cc4c(c(C(C)O)c3C1)CCC4)CCC2 (stereo unspecified) end up with in this test?
// result No

// query What classification did COC(=O)C1C(C(=O)OC)C2C(=O)C3C(C(=O)OC)C(C(=O)OC)C3C(=O)C12 (stereo unspecified) end up with in this test?
// result No

// query What classification did CC1=C(C(=O)OC(C)C)C(c2cccc([N+](=O)[O-])c2)C(C(=O)OC(CO[N+](=O)[O-])CO[N+](=O)[O-])=C(C)N1 (stereo unspecified) end up with in this test?
// result No

// query What classification did N#C[C@]12CC3(CC[C@H]1CC1(C2)OCCO1)OCCO3 end up with in this test?
// result No

// query What classification did Cc1n[nH]c(=O)c2c3c([nH]c12)-c1ccccc1C3 end up with in this test?
// result No

// query What classification did Cc1cccc(CC(Cc2c(C)cccc2C(=O)O)C(=O)O)c1 (stereo unspecified) end up with in this test?
// result No

// query What classification did CCCC/C(C)=N/NC(N)=S end up with in this test?
// result No

// query What classification did C=C(C)CCC1CC=[N+]([O-])OC1C(C)(C)C (stereo unspecified) end up with in this test?
// result No

// query What classification did CC[C@@]1(O)C[C@H](OC2CC(N(C)C)C(O)C(C)O2)c2c(O)c3c(c(O)c2[C@H]1OC1CC(N(C)C)C(O)C(C)O1)C(=O)c1cccc(O)c1C3=O (stereo partly specified) end up with in this test?
// result Yes

// query What classification did C[N+]1=c2c3cccc4cccc(c(=O)n2CCC1)c43 end up with in this test?
// result No

// query What classification did COc1cc(/C=C2\C[C@H]3[C@@H]4CC=C5C[C@@H](O)CC[C@]5(C)[C@H]4CC[C@]3(C)[C@H]2O)cc(OC)c1OC end up with in this test?
// result No

// query What classification did COc1cc2nc(-c3cccs3)[nH]c(=O)c2cc1OC end up with in this test?
// result No

// query What classification did O=C(O)[C@H](NS(=O)(=O)c1ccc(F)cc1)c1ccccc1 end up with in this test?
// result No

// query What classification did Cc1ccc(S(=O)(=O)Nc2cccc(C)c2C)cc1 end up with in this test?
// result No

###

- Tested on: SNB-78
- TEST: NCI tumour cell line growth inhibition, 48 h
Active and inactive are the calls of the source. No stated cut-off is given here; in the data, active = GI50 up to about 1.1 µM and inactive = higher.
Answer with one of the outcomes active, inactive

// query What classification did COc1ccc(CC2C(=O)NC(C)C(=O)N(C)C3C(=O)N(C)C(Cc4ccc(O)c(c4)Oc4ccc(cc4)C3O)C(=O)NC(C)C(=O)NC(C)C(=O)N2C)cc1 (stereo not drawn) end up with in this test?
// result active

// query What classification did BrC/C=C/C[P+](c1ccccc1)(c1ccccc1)c1ccccc1 end up with in this test?
// result inactive

// query What classification did CN(C)CCC1(C2=CCCC2)CC/C(=C\c2ccccc2Cl)C1=O (stereo not drawn) end up with in this test?
// result inactive

###

- Tested on: UACC-62
- TEST: NCI tumour cell line growth inhibition, 48 h
The source made the active and inactive calls. No stated cut-off is given here; in the data, active = GI50 up to about 1.1 µM and inactive = higher.
Answer with one of the outcomes t = active, f = inactive

// query What classification did COC(=O)[C@@H]1C[C@]2(CC=C(C)C)c3ccccc3N(S(=O)(=O)c3ccccc3)[C@@H]2N1C(=O)OC end up with in this test?
// result f

// query What classification did COc1cc([N+](=O)[O-])ccc1NC(=O)C(F)(F)F end up with in this test?
// result f

// query What classification did Cc1nc(N)nc(N)c1N1CCN(Cc2ccccc2)CC1 end up with in this test?
// result f

// query What classification did CN(C)CC1(C)CC/C(=C\c2ccc(Cl)cc2)C1=O (configuration not stated) end up with in this test?
// result f

// query What classification did CCCCCCCCCC(=O)OCC1(CO)C/C(=C/CC(C(C)C)C(C)C)C(=O)O1 (configuration not stated) end up with in this test?
// result f

// query What classification did CCOC(=O)[C@@]12CCC(C1=O)[C@](C)(O)C[C@@H]2c1ccccc1 end up with in this test?
// result f

// query What classification did COc1cc([N+](=O)[O-])c(S(=O)(=O)O)cc1N end up with in this test?
// result f

// query What classification did COc1cc2c[n+](C)c3c4cc(OC)c(OC)cc4c(OC)cc3c2cc1OC end up with in this test?
// result f

// query What classification did CCOC(=O)Cn1c(=O)[nH]c(=O)c2c1ncn2Cc1ccccc1 end up with in this test?
// result f

// query What classification did CC1=NOC2(C1)/C(=N/O)CCC/C2=N\O (configuration not stated) end up with in this test?
// result f

// query What classification did CCc1ccccc1NC(=O)c1cccc([N+](=O)[O-])c1O end up with in this test?
// result f

// query What classification did CCCC(=O)Oc1cc(OC(=O)CCC)c2c(C)cc(=O)oc2c1 end up with in this test?
// result f

// query What classification did Cc1cc(=O)oc2c(CNC(C)C(=O)O)c(O)ccc12 (configuration not stated) end up with in this test?
// result f

// query What classification did O=C(/C=C/NC(=O)OCc1ccccc1)OCc1ccccc1 end up with in this test?
// result f

// query What classification did O=[N+]([O-])c1ccc2sc(/C=N/c3ccccn3)cc2c1 end up with in this test?
// result f

// query What classification did CC(NC1=CC(=O)c2cccnc2C1=O)C(O)c1ccccc1 (configuration not stated) end up with in this test?
// result f

// query What classification did CC[C@@]1(O)C[C@H](OC2CC(N(C)C)C(O)C(C)O2)c2c(O)c3c(c(O)c2[C@H]1OC1CC(N(C)C)C(O)C(C)O1)C(=O)c1cccc(O)c1C3=O (some centres not stated) end up with in this test?
// result t

// query What classification did O=C1Nc2cccc(C(F)(F)F)c2/C1=N/Nc1ccccc1[N+](=O)[O-] end up with in this test?
// result f

// query What classification did COc1ccc(C2C(C(=O)O)=C(CO)Oc3cc4c(cc32)OCO4)c(OC)c1 (configuration not stated) end up with in this test?
// result f

// query What classification did NC(=O)CC(N)C(=O)NC(Cc1ccccc1)C(=O)NC(Cc1ccccc1)NC(=O)C(Cc1c[nH]c2ccccc12)C(=O)O (configuration not stated) end up with in this test?
// result f

// query What classification did CC1=CC(O)C(C(O)(C(F)(F)F)C(F)(F)F)C(C)(C)C1 (configuration not stated) end up with in this test?
// result f

// query What classification did NC(=O)c1c[se]c(C2OC(CO)C(O)C2O)n1 (configuration not stated) end up with in this test?
// result f

###

- Tested on: SF-268
- TEST: NCI tumour cell line growth inhibition, 48 h
The source made the active and inactive calls. Rule as the data show it: active = GI50 up to about 1.1 µM and inactive = higher.
Answer with one of the outcomes active, inactive

// query What classification did CSc1nn(C)cc2ncnc1-2 end up with in this test?
// result inactive

// query What classification did N#CC(c1nc2ccccc2nc1Cl)S(=O)(=O)c1ccccc1 (centres undefined) end up with in this test?
// result inactive

// query What classification did CC[C@@]1(O)C(=O)OCc2c1cc1n(c2=O)Cc2c-1nc1ccccc1c2Cl end up with in this test?
// result active

// query What classification did Nc1ccc(S(=O)(=O)Nc2nc3ccccc3nc2N2CCCCCC2)cc1 end up with in this test?
// result inactive

// query What classification did CNC1=Nc2ccc(Cl)cc2C(c2ccccc2)=NN1C end up with in this test?
// result inactive

// query What classification did CCO/N=[N+](\[O-])N(CC)CC end up with in this test?
// result inactive

// query What classification did O=[N+]([O-])c1c(Br)cc(Br)c2c1Nc1c(ccc(Cl)c1Cl)S2 end up with in this test?
// result inactive

// query What classification did CN(Cc1cnc2c(N)nc(N)nc2n1)c1ccc(Cl)cc1 end up with in this test?
// result inactive

// query What classification did CCCN(CCCCC(NC(C)=O)C(=O)NCc1ccccc1)C(=O)NC (centres undefined) end up with in this test?
// result inactive

// query What classification did COc1cc(C=O)ccc1Oc1nnnn1-c1ccccc1 end up with in this test?
// result inactive

// query What classification did COC(=O)C1=C(C(=O)OC)SC(=C2SCSC3=C2SC(C(=O)OC)=C(C(=O)OC)C32SC3=C(CCCC3)S2)S1 end up with in this test?
// result inactive

// query What classification did Cc1cccc(-n2c(=S)[nH]c3c(sc(=O)n3-c3ccccc3C)c2=O)c1 end up with in this test?
// result inactive

// query What classification did COc1ccc2nc(/C(N)=C\C#N)ccc2c1 end up with in this test?
// result inactive

// query What classification did CC(=O)NC1=C(NC(C)(C)C)C(=O)c2ccccc2C1=O end up with in this test?
// result inactive

// query What classification did COC(=O)CCCC(=O)/C(=N\Nc1ccc(Cl)cc1)Nc1c(Cl)cccc1Cl end up with in this test?
// result inactive

// query What classification did CC12CC(=O)NN=C1c1ccccc1C2 (centres undefined) end up with in this test?
// result inactive

// query What classification did Nc1nc(SCCC/C=C/B(O)O)nc2c1ncn2C1OC(CO)C(O)C1O (centres undefined) end up with in this test?
// result inactive

// query What classification did O=C(Nc1ccc(Cl)cc1Cl)c1c/c(=N\O)c2ccc(O)cc2o1 end up with in this test?
// result inactive

// query What classification did CCN(CC)CCSc1c2cc(OC)ccc2nc2ccc(OC)cc12 end up with in this test?
// result inactive

// query What classification did COc1cc2ccc1-c1cc(ccc1O)CC1c3cc4c(cc3CCN1C)Oc1c(OC)cc3c(c1O4)C(C2)N(C)CC3 (centres undefined) end up with in this test?
// result inactive

// query What classification did Cc1nc(N)nc(N)c1N1CCN(Cc2ccccc2)CC1 end up with in this test?
// result inactive

// query What classification did COC(=O)CCC1=NOC(CC2CC(CCC(=O)OC)=NO2)C1 (centres undefined) end up with in this test?
// result inactive

// query What classification did COC(=O)/C=C/c1cnc2c(c1)oc(=O)n2C end up with in this test?
// result inactive

// query What classification did S=C(N/N=C(/c1ccccc1)c1ccccn1)N1CCCCCC1 end up with in this test?
// result active

// query What classification did N/C(=N\N=C\c1cc2ccccc2s1)c1cnccn1 end up with in this test?
// result inactive

// query What classification did CN/C(=N/C#N)NCc1ccccc1 end up with in this test?
// result inactive

// query What classification did C=C[Si](C)(C)COC(=O)/C(C#N)=C/C=C/c1ccccc1 end up with in this test?
// result inactive

// query What classification did Cc1nc2c(=O)n(-c3ccccc3)c(=O)n(-c3ccccc3)c2o1 end up with in this test?
// result inactive

// query What classification did CCCC(=O)Oc1cc(OC(=O)CCC)c2c(C)cc(=O)oc2c1 end up with in this test?
// result inactive

// query What classification did Cc1nc(-c2cccnc2)sc1C(=O)/C=C/c1cccc([N+](=O)[O-])c1 end up with in this test?
// result inactive

// query What classification did COc1cc(/C=C2\C[C@H]3[C@@H]4CC=C5C[C@@H](O)CC[C@]5(C)[C@H]4CC[C@]3(C)[C@H]2O)cc(OC)c1OC end up with in this test?
// result inactive

// query What classification did Cc1c(N)nc(C(CC(N)=O)NCC(N)C(N)=O)nc1C(=O)NC(C(=O)NC(C)C(O)C(C)C(=O)NC(C(=O)NCCc1nc(-c2nc(C(=O)NCCCNCCCCN)cs2)cs1)C(C)O)C(OC1OC(CO)C(O)C(O)C1OC1OC(CO)C(O)C(OC(N)=O)C1O)c1c[nH]cn1 (centres undefined) end up with in this test?
// result inactive

// query What classification did CC1OC(n2cc(F)c(=O)[nH]c2=O)C=CC1O (centres undefined) end up with in this test?
// result inactive

// query What classification did COc1ccc(-c2c(C#N)c(-c3ccc(C)cc3)n(NS(=O)(=O)c3ccc(C)cc3)c(=O)c2C#N)cc1 end up with in this test?
// result inactive

// query What classification did CC(C)[C@H](O)C(=O)N[C@H]1Cc2ccc3c(c2)[C@]24C5=C(N=C(O5)[C@H](C(C)C)NC1=O)c1nc(Cl)c(o1)-c1c(Cl)[nH]c5cccc(c15)-c1cccc2c1N[C@H]4O3 end up with in this test?
// result active

// query What classification did O=S1(=O)OCCOS(=O)(=O)C1Cl end up with in this test?
// result inactive

// query What classification did O=C1OC(=O)C2C3C=CC(C12)C1C2C=CC2C31 (centres undefined) end up with in this test?
// result inactive

// query What classification did CC(=O)OCC1OC(O[C@@H]2C[C@H]3C(C)(C)[C@@H](OC(C)=O)CC[C@]3(C)[C@H]3CC[C@]45C[C@]4(CC[C@H]5[C@@H](C)C[C@@H](O)[C@H](O)C(C)(C)F)[C@@]32C)C(O)C(O)C1O (some centres undefined) end up with in this test?
// result inactive

// query What classification did Cc1cc(N(CCC#N)CCC#N)ccc1/C(Sc1ccccc1)=C(\NC(=O)/C=C/c1ccccc1)C(=O)Sc1ccccc1 end up with in this test?
// result active
